Listed here are binders together with their documented kon.
target.desc: T1, human TNF-alpha (hTNF-alpha) (human, UniProt P01375 77-233)
T1 construct: also called biotinylated hTNF-; [125I]TNF-
protocol.description: SPR (BIAcore), TNFrED captured on BAF225 anti-TNFrED surface, TNF-alpha injected at 1-100 nM, global 1:1 fit

TNFrED S87P (receptor, Secreted from HEK293-EBNA cells, conditioned medium) DSVCPQGKYIHPQNNSICCTKCHKGTYLYNDCPGPGQDTDCRECESGSFTASENHLRHCLSCSKCRKEMGQVEISPCTVDRDTVCGCRKNQYRHYWSENLFQCFNCSLCLNGTVHLSCQEKQNTVCTCHAGFFLRENECVSCSNCKKSLECTKLCLPQIEN ... 2e+06 M⁻¹ s⁻¹
TNFrED S57I (receptor, Secreted from HEK293-EBNA cells, conditioned medium; also called S571) DSVCPQGKYIHPQNNSICCTKCHKGTYLYNDCPGPGQDTDCRECEIGSFTASENHLRHCLSCSKCRKEMGQVEISSCTVDRDTVCGCRKNQYRHYWSENLFQCFNCSLCLNGTVHLSCQEKQNTVCTCHAGFFLRENECVSCSNCKKSLECTKLCLPQIEN ... 1.9e+06 M⁻¹ s⁻¹

Here is the next item to consider.
Exercise: Could you share which kon value was measured for TNFrED H34P+S87P (receptor, Secreted from HEK293-EBNA cells, conditioned medium) DSVCPQGKYIHPQNNSICCTKCPKGTYLYNDCPGPGQDTDCRECESGSFTASENHLRHCLSCSKCRKEMGQVEISPCTVDRDTVCGCRKNQYRHYWSENLFQCFNCSLCLNGTVHLSCQEKQNTVCTCHAGFFLRENECVSCSNCKKSLECTKLCLPQIEN ?
Key: 1.9e+06 M⁻¹ s⁻¹
